These data points were gathered from PubChem BioAssay AID1645853.

Target: Ubiquitin carboxyl-terminal hydrolase 8 (Homo sapiens) (UniProt P40818)
Sequence (P40818 whole entry, looked up): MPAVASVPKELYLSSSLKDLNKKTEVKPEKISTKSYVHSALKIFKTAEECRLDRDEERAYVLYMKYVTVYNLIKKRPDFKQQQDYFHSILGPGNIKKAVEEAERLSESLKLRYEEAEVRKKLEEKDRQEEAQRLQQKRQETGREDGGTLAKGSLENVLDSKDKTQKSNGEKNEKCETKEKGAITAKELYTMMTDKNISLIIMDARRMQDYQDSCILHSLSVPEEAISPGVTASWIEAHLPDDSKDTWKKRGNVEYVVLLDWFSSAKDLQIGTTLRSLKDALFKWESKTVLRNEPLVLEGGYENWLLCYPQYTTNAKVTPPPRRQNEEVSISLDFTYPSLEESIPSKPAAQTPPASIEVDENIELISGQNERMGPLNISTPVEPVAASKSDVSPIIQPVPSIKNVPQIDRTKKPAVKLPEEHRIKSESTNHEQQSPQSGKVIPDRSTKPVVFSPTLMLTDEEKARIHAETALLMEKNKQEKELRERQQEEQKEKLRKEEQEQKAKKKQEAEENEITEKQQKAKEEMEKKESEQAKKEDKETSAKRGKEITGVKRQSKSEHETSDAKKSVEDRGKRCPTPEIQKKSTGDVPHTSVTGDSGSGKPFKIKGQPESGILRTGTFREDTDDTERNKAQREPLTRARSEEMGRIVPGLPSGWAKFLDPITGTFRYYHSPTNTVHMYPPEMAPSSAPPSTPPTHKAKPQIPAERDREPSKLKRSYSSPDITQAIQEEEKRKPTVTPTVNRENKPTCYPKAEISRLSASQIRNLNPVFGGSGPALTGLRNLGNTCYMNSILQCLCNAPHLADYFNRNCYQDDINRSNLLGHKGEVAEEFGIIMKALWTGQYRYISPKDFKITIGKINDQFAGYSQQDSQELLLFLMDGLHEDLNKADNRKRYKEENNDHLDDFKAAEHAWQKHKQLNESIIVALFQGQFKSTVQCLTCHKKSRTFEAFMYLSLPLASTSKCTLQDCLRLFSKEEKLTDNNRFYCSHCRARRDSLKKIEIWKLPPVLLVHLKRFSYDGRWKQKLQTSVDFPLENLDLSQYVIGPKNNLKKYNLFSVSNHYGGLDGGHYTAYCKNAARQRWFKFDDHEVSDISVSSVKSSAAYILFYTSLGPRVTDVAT
Assay: blocks human USP8 ubiquitin-rhodamine cleavage (AID 1645853)
Conditions: purified USP8, Ub-rhodamine cleavage fluorescence, 30 min; at 20 µM; active compounds read high
Screen size: about 47,000 compounds; about 2,000 (4.3%) were called active. For the sample, actives were picked, then their nearest neighbours and some compounds at random.
inhibition: recorded values

>  <compound>
CCc1cccc(C)c1NC(=O)CSc1nc2c(c(=O)[nH]1)CCCC2

>  <subjectOfTest>
Ubiquitin carboxyl-terminal hydrolase 8 (Homo sapiens) (UniProt P40818)

>  <uom>
%

>  <inhibition>
18

$$$$
>  <compound>
O=C(CCc1csc(NC(=O)c2ccc(=O)[nH]c2)n1)NCCc1c[nH]c2ccccc12

>  <subjectOfTest>
Ubiquitin carboxyl-terminal hydrolase 8 (Homo sapiens) (UniProt P40818)

>  <uom>
%

>  <inhibition>
62.3

$$$$
>  <compound>
Cc1cc(C)cc(C(=O)N2CCN(c3nnc4ccccn34)CC2)c1

>  <subjectOfTest>
Ubiquitin carboxyl-terminal hydrolase 8 (Homo sapiens) (UniProt P40818)

>  <uom>
%

>  <inhibition>
-9.4

$$$$
>  <compound>
CC(C)Cc1nc2sc3c(NCc4ccco4)ncnc3c2c2c1CCC2

>  <subjectOfTest>
Ubiquitin carboxyl-terminal hydrolase 8 (Homo sapiens) (UniProt P40818)

>  <uom>
%

>  <inhibition>
16.6

$$$$
>  <compound>
CC1CCN(S(=O)(=O)CC(F)(F)F)Cc2nc3ccccc3n21 (stereo not drawn)

>  <subjectOfTest>
Ubiquitin carboxyl-terminal hydrolase 8 (Homo sapiens) (UniProt P40818)

>  <uom>
%

>  <inhibition>
-0.0013

$$$$
>  <compound>
COc1ccc2ncc(S(=O)(=O)c3ccccc3)c(Nc3ccc(F)cc3)c2c1

>  <subjectOfTest>
Ubiquitin carboxyl-terminal hydrolase 8 (Homo sapiens) (UniProt P40818)

>  <uom>
%

>  <inhibition>
17.2

$$$$
>  <compound>
c1coc(CNc2nc(Nc3cccc4ccccc34)nc3ccccc23)c1

>  <subjectOfTest>
Ubiquitin carboxyl-terminal hydrolase 8 (Homo sapiens) (UniProt P40818)

>  <uom>
%

>  <inhibition>
35.8

$$$$
>  <compound>
CCc1cccc(C)c1NC(=O)Cn1nc2ccc(C(=O)NCc3ccccc3)cn2c1=O

>  <subjectOfTest>
Ubiquitin carboxyl-terminal hydrolase 8 (Homo sapiens) (UniProt P40818)

>  <uom>
%

>  <inhibition>
74.5

$$$$
>  <compound>
CC(=O)NC(Cc1cccc(C)c1)C(=O)NC1CCN(C(=O)c2cccc(C)c2)CC1 (stereo not drawn)

>  <subjectOfTest>
Ubiquitin carboxyl-terminal hydrolase 8 (Homo sapiens) (UniProt P40818)

>  <uom>
%

>  <inhibition>
-1.31

$$$$
>  <compound>
CN(C)[C@@H]1CN(S(=O)(=O)N2CCOCC2)C[C@H]1O

>  <subjectOfTest>
Ubiquitin carboxyl-terminal hydrolase 8 (Homo sapiens) (UniProt P40818)

>  <uom>
%

>  <inhibition>
11.8

$$$$
>  <compound>
O=C(Nc1ccccc1)N1CCN(c2ncccc2-c2nnc(C3CC3)o2)CC1

>  <subjectOfTest>
Ubiquitin carboxyl-terminal hydrolase 8 (Homo sapiens) (UniProt P40818)

>  <uom>
%

>  <inhibition>
-5.37

$$$$
>  <compound>
Fc1ccc(-n2cc(-c3ccccc3)c3c(NCc4ccco4)ncnc32)cc1

>  <subjectOfTest>
Ubiquitin carboxyl-terminal hydrolase 8 (Homo sapiens) (UniProt P40818)

>  <uom>
%

>  <inhibition>
5.27

$$$$
>  <compound>
O=C(CSc1n[nH]c(-c2cccnc2)n1)Nc1ccc(Cl)cc1

>  <subjectOfTest>
Ubiquitin carboxyl-terminal hydrolase 8 (Homo sapiens) (UniProt P40818)

>  <uom>
%

>  <inhibition>
-5.47

$$$$

###

Biological target: Ubiquitin carboxyl-terminal hydrolase 8 (Homo sapiens) (UniProt P40818)
Experiment: blocks human USP8 ubiquitin-rhodamine cleavage (AID 1645853)
Settings: purified USP8, Ub-rhodamine cleavage fluorescence, 30 min; at 20 µM
The whole screen tested about 47,000 compounds, of which about 2,000 (4.3%) were called active. No stated cut-off is given here; in the data, active means inhibition above about 30%; inactive means the rest. This excerpt belongs to a sample that is enriched for actives.
Outcome codes: t = active, f = inactive

>  <molecule>
O=S(=O)(Nc1ccc2[nH]ncc2c1)c1ccccc1Cl

>  <label>
t

$$$$
>  <molecule>
O=C(Nc1ccc2c(c1)OCO2)N1CCCCCC1

>  <label>
f

$$$$
>  <molecule>
COc1ccc(-c2ocnc2C(=O)NCc2ccc(OC)c(OC)c2)cc1

>  <label>
f

$$$$
>  <molecule>
Cc1[nH]c(C)c(S(=O)(=O)NC2CC2)c1-c1nc(C2CC2)no1

>  <label>
f

$$$$
>  <molecule>
CCCCc1nc2sc3c(SCC(=O)NCc4ccccc4)ncnc3c2c2c1CCC2

>  <label>
f

$$$$
>  <molecule>
CN1[C@@H](CCC(=O)N2CCOCC2)CNC(=O)[C@@H]2[C@H]1CCN2C1CCCCC1

>  <label>
f

$$$$
>  <molecule>
O=C1CC(C(=O)Nc2ccccc2F)N=C(N2CCN(c3ccccc3F)CC2)N1 (configuration not stated)

>  <label>
f

$$$$
>  <molecule>
COc1ccc(CNC(=O)Cn2c(C)nc3onc(C)c3c2=O)cc1

>  <label>
f

$$$$
>  <molecule>
Cc1ccc(CC(=O)Nc2nnc(C3CC(=O)N(c4ccc(C)c(C)c4)C3)s2)cc1 (configuration not stated)

>  <label>
t

$$$$
>  <molecule>
COc1ccc(CC(=O)Nc2ccc3c(c2)CN(C(=O)c2ccco2)CC3)cc1

>  <label>
t

$$$$
>  <molecule>
Cc1cccc(NC(=O)c2csc(-c3cn(C)c4ncccc34)n2)c1

>  <label>
f

$$$$
>  <molecule>
COc1ccc(-c2nc(C3CC(=O)N(c4ccccc4)C3)no2)cc1 (configuration not stated)

>  <label>
f

$$$$
>  <molecule>
COc1ccc(C(=O)NCC(c2cccnc2)S(=O)(=O)c2ccc(C)cc2)cc1OC (configuration not stated)

>  <label>
f

$$$$
>  <molecule>
Cc1nn(C)c(C)c1CNC(=O)c1cc2cn(C3CCCC3)cc2s1

>  <label>
f

$$$$
>  <molecule>
Cc1ccc(N2CC(c3nnc(NC(=O)CCCc4ccccc4)s3)CC2=O)cc1 (configuration not stated)

>  <label>
f

$$$$
>  <molecule>
CN1C(=O)C(C)(C)COc2ccc(NS(=O)(=O)c3ccccc3Cl)cc21

>  <label>
f

$$$$
>  <molecule>
C#CCOc1ccc2ccccc2c1CN1CCc2ccccc2C1

>  <label>
t

$$$$
>  <molecule>
COc1ccc(-c2nc3c(c(=O)c4ccccc4n3C)c(=O)n2Cc2ccco2)cc1

>  <label>
t

$$$$
>  <molecule>
Cn1cc(-c2nc(C(=O)Nc3ccc(F)cc3)cs2)c2cccnc21

>  <label>
t

$$$$
>  <molecule>
O=C(COC(=O)CCc1nc2ccccc2c(=O)[nH]1)Nc1ccc(N2CCOCC2)cc1

>  <label>
f

$$$$
>  <molecule>
CC(C)CCNC(=O)C1(C)Cn2c(cc3ccccc32)C(=O)N1Cc1ccccc1F (configuration not stated)

>  <label>
f

$$$$
>  <molecule>
CNC1C(OC2C(OC3C(O)C(O)C(OC(N)=O)C(O)C3N=C(N)N)OC(C)C2(O)CO)OC(CO)C(O)C1O (configuration not stated)

>  <label>
f

$$$$
>  <molecule>
Cc1cc(C)n(CCC(=O)NCC2CCOCC2)n1

>  <label>
f

$$$$
>  <molecule>
Cn1nc(C(=O)Nc2ccc(F)cc2)c(=O)c2ccccc21

>  <label>
f

$$$$
>  <molecule>
CCOc1ccccc1NC(=O)COc1cccc2c1OC(C)(C)C2

>  <label>
f

$$$$
>  <molecule>
CN1CC(c2nc3ccccc3n2Cc2ccccc2)CC1=O (configuration not stated)

>  <label>
f

$$$$
>  <molecule>
CSCCC(NC(=O)C1CCCC1)c1nc2ccccc2[nH]1 (configuration not stated)

>  <label>
f

$$$$
>  <molecule>
COc1ccc(N2CC(c3nnc(NC(=O)CCc4ccccc4)s3)CC2=O)cc1 (configuration not stated)

>  <label>
t

$$$$
>  <molecule>
O=C(NC1CCN(Cc2ccccc2)CC1)c1cc2cn(C3CC3)cc2s1

>  <label>
t

$$$$
>  <molecule>
Nn1c(SCC(=O)Nc2ccccc2F)nnc1-c1n[nH]c2c1CCC2

>  <label>
f

$$$$
>  <molecule>
O=C(NC(c1ccccc1)C1CC1)c1ccc2c(c1)S(=O)(=O)Nc1ncnn1-2 (configuration not stated)

>  <label>
f

$$$$
>  <molecule>
O=C(CN1CCN(CC(=O)Nc2ccc3c(c2)OCO3)CC1)Nc1ccc(F)cc1

>  <label>
t

$$$$
>  <molecule>
CCC(C)[C@H](NC(=O)[C@@H]1Cc2c([nH]c3ccccc23)C2c3ccccc3C(=O)N21)C(=O)NCCc1ccccc1 (some centres not stated)

>  <label>
f

$$$$
>  <molecule>
COc1ccc(CC(=O)Nc2ccc3c(c2)CCC3)cc1S(=O)(=O)N1CCOCC1

>  <label>
f

$$$$
>  <molecule>
Cn1cccc1/C(C#N)=C\c1ccc2c(c1)OCO2

>  <label>
t

$$$$
>  <molecule>
CCOc1cc(S(=O)(=O)Nc2ccc3cn[nH]c3c2)ccc1Cl

>  <label>
f

$$$$
>  <molecule>
CC1(C(=O)NC2CCCC2)Cn2c(cc3ccccc32)C(=O)N1c1ccc(F)cc1 (configuration not stated)

>  <label>
t

$$$$
